test system: MOLM-13 cells; assay: Cell viability assay (CellTiter-Glo) in MOLM-13 cells, alone or with gilteritinib; format: cell-based; details: Homo sapiens, MOLM-13, 72 h, MOLM-13 cells, compound alone (without gilteritinib), three days, CellTiter-Glo; read-out: MOLM-13 IC50
QUANTITY_MEASURED: IC50

MOLECULE	VALUE_MEASURED
O=C1CCC(N2C(=O)c3ccc(NCCC[C@H]4C[C@H](n5cc(-c6cnc7ccc(N8C[C@H]9C[C@@H]8CO9)cc7n6)cn5)C4)cc3C2=O)C(=O)N1 (stereo partly shown)	0.01 to 0.1 µM

So what does the record say about IC50 for O=C1CCC(N2C(=O)c3ccc(NCCC[C@H]4C[C@H](n5cc(-c6cccc(N7CCOCC7)n6)c(C6CC6)n5)C4)cc3C2=O)C(=O)N1 (stereo partly shown) ?
> 1 µM

So what does the record say about IC50 for O=C1CCC(N2C(=O)c3ccc(NC[C@H]4C[C@H](n5cc(-c6cnc7ccc(CN8CCNCC8)cc7n6)c(C6CC6)n5)C4)cc3C2=O)C(=O)N1 (stereo partly shown) ?
> 1 µM

So what does the record say about IC50 for CN1CCN(c2ccnc(-c3cn([C@H]4C[C@H](CNc5ccc6c(c5)C(=O)N(C5CCC(=O)NC5=O)C6=O)C4)nc3C3CC3)c2)CC1 (stereo partly shown) ?
> 1 µM

So what does the record say about IC50 for O=C1CCC(N2C(=O)c3ccc(NC4CCC(CCn5cc(-c6cnc7ccccc7n6)cn5)CC4)cc3C2=O)C(=O)N1 (stereo not shown) ?
> 1 µM

* * *

tested on: MOLM-13 cells; assay: Cell viability assay (CellTiter-Glo) in MOLM-13 cells, alone or with gilteritinib; format: cell-based; conditions: Homo sapiens, MOLM-13, 72 h, MOLM-13 cells, compound alone (without gilteritinib), three days, CellTiter-Glo; read-out: MOLM-13 IC50
pIC50: −log10 of the molar value.
pIC50 for assorted compounds

So what does the record say about pIC50 for O=C1CCC(N2C(=O)c3ccc(NCCC[C@H]4C[C@@H](n5cc(-c6cnc7ccc(C8CCOCC8)cc7n6)c(C(F)(F)F)n5)C4)cc3C2=O)C(=O)N1 (stereo partly shown) ?
> 8.00

So what does the record say about pIC50 for CN1CC(c2cccc(-c3cn([C@H]4C[C@H](CNc5ccc6c(c5)C(=O)N(C5CCC(=O)NC5=O)C6=O)C4)nc3C3CC3)n2)C1 (stereo partly shown) ?
< 6.00

So what does the record say about pIC50 for O=C1CCC(N2Cc3c(Nc4cccc(Nc5cccc(N6CCC(n7cc(-c8cnc9ccccc9n8)cn7)CC6)c5)n4)cccc3C2=O)C(=O)N1 (stereo not shown) ?
7.00 to 8.00

So what does the record say about pIC50 for O=C1CCC(N2Cc3ccc(CCCC(=O)N4CCC(n5cc(-c6cnc7ccccc7n6)cn5)CC4)cc3C2=O)C(=O)N1 (stereo not shown) ?
< 6.00

* * *

test system: MOLM-13 cells; experiment: Cell viability assay (CellTiter-Glo) in MOLM-13 cells, alone or with gilteritinib; format: cell-based; conditions: Homo sapiens, MOLM-13, 72 h, MOLM-13 cells, compound alone (without gilteritinib), three days, CellTiter-Glo; read-out: MOLM-13 IC50
pIC50: −log10 of the molar value.
QUANTITY_MEASURED: pIC50

// below: answered compounds
> print(dat)
                                   compound   study.target  quantity.measured  value.measured
1  CN1CCN(c2cccc(-c3cnn([C@H]4C[C@H](CCCNc5ccc6c(c5)C(=O)N(C5CCC(=O)NC5=O)C6=O)C4)c3)n2)CC1 (stereo partly shown)  MOLM-13 cells              pIC50          < 6.00
2  O=C1CCC(N2C(=O)c3ccc(NCCC[C@H]4C[C@H](n5cc(-c6cc(Cl)ccn6)cn5)C4)cc3C2=O)C(=O)N1 (stereo partly shown)  MOLM-13 cells              pIC50          < 6.00

So what does the record say about pIC50 for O=C1CCC(N2C(=O)c3ccc(NCCCCCC(=O)N4CCC(c5cnc6cccc(Br)c6n5)CC4)cc3C2=O)C(=O)N1 (stereo not shown) ?
> 8.00

So what does the record say about pIC50 for O=C1CCC(N2Cc3ccc(CCCCC(=O)N4CCC(n5cc(-c6cnc7ccccc7n6)cn5)CC4)cc3C2=O)C(=O)N1 (stereo not shown) ?
< 6.00

* * *

test system: MV4;11 cells; test: Cell viability assay (CellTiter-Glo) in MV4;11 cells, alone or with gilteritinib; assay type: cell-based; details: Homo sapiens, MV4-11, 72 h, MV4;11 cells, compound with gilteritinib 10 nM, three days, CellTiter-Glo; read-out: MV4; 11 IC50 gilteritinib
pIC50: −log10 of the molar value.
QUANTITY_MEASURED: pIC50

// below: answered compounds
COMPOUND	VALUE_MEASURED
Cc1nn([C@H]2C[C@@H](CCCNc3ccc4c(c3)C(=O)N(C3CCC(=O)NC3=O)C4=O)C2)cc1-c1cnc2cc(N3CCOCC3)ccc2n1 (stereo partly drawn) [GS-422]	> 8.00
CN1CCN(c2cccc(-c3cnn([C@H]4C[C@H](CNc5ccc6c(c5)C(=O)N(C5CCC(=O)NC5=O)C6=O)C4)c3)n2)CC1 (stereo partly drawn) [GS-416]	< 6.00
O=C1CCC(N2C(=O)c3ccc(NCCCCCCn4cc(-c5cnc6ccc(N7CCOCC7)cc6n5)cn4)cc3C2=O)C(=O)N1 (stereo not drawn) [GS-530]	> 8.00
O=C1CCC(N2C(=O)c3ccc(NC[C@H]4C[C@H](n5cc(N6CCC(O)CC6)c(C6CC6)n5)C4)cc3C2=O)C(=O)N1 (stereo partly drawn) [GS-452]	< 6.00
Cc1cccnc1-c1cnn([C@H]2C[C@H](CCCNc3ccc4c(c3)C(=O)N(C3CCC(=O)NC3=O)C4=O)C2)c1 (stereo partly drawn) [GS-602]	> 8.00

So what does the record say about pIC50 for O=C1CCC(N2C(=O)c3ccc(NC[C@H]4C[C@H](n5cc(-c6cccc(OC7CC7)n6)c(C6CC6)n5)C4)cc3C2=O)C(=O)N1 (stereo partly drawn) [GS-471] ?
7.00 to 8.00

So what does the record say about pIC50 for O=C1CCC(N2Cc3cc(OCCCN4CCC(n5cc(-c6cnc7ccccc7n6)cn5)CC4)ccc3C2=O)C(=O)N1 (stereo not drawn) [GS-492] ?
< 6.00

So what does the record say about pIC50 for Cc1cccc(-c2cn([C@H]3C[C@H](CNc4ccc5c(c4)C(=O)N(C4CCC(=O)NC4=O)C5=O)C3)nc2C2CC2)n1 (stereo partly drawn) [GS-589] ?
> 8.00

So what does the record say about pIC50 for O=C1CCC(N2C(=O)c3ccc(NC[C@H]4C[C@H](n5cc(-c6cccnn6)c(C6CC6)n5)C4)cc3C2=O)C(=O)N1 (stereo partly drawn) [GS-597] ?
< 6.00

So what does the record say about pIC50 for Cc1nn(CCCCCCNc2ccc3c(c2)C(=O)N(C2CCC(=O)NC2=O)C3=O)c(C)c1-c1ccc2ccccc2n1 (stereo not drawn) [GS-549] ?
7.00 to 8.00

* * *

test system: MV4;11 cells; assay: Cell viability assay (CellTiter-Glo) in MV4;11 cells, alone or with gilteritinib; type: cell-based; conditions: Homo sapiens, MV4-11, 72 h, MV4;11 cells, compound with gilteritinib 10 nM, three days, CellTiter-Glo; read-out: MV4; 11 IC50 gilteritinib
IC50 for assorted molecules

So what does the record say about IC50 for O=C1CCC(N2Cc3cc(NC(=O)C(F)(F)c4cccc(N5CCC(n6cc(-c7cnc8ccccc8n7)cn6)CC5)c4)ccc3C2=O)C(=O)N1 (stereo not shown) [GS-500] ?
< 10 nM

So what does the record say about IC50 for O=C1CCC(N2C(=O)c3ccc(NCCCCC(F)(F)C(=O)N4CCC(n5cc(-c6cnc7ccccc7n6)cn5)CC4)cc3C2=O)C(=O)N1 (stereo not shown) [GS-520] ?
< 10 nM

So what does the record say about IC50 for O=C(CCC(F)(F)C(=O)N1CCC(n2cc(-c3cnc4ccccc4n3)cn2)CC1)NCc1ccc2c(c1)CN(C1CCC(=O)NC1=O)C2=O (stereo not shown) [GS-518] ?
< 10 nM

So what does the record say about IC50 for O=C1CCC(N2C(=O)c3ccc(NC[C@H]4C[C@H](n5cc(-c6cnc7c(C8CNC8)cccc7n6)c(C6CC6)n5)C4)cc3C2=O)C(=O)N1 (stereo partly shown) [GS-624] ?
10 to 100 nM

* * *

pIC50 for assorted molecules
system: MOLM-13 cells; assay: Cell viability assay (CellTiter-Glo) in MOLM-13 cells, alone or with gilteritinib; assay type: cell-based; details: Homo sapiens, MOLM-13, 72 h, MOLM-13 cells, compound alone (without gilteritinib), three days, CellTiter-Glo; read-out: MOLM-13 IC50
pIC50: −log10 of the molar value.

// below: answered molecules
> print(dat)
                                   molecule  quantity.measured  value.measured
1  CN1CCN(c2ccc3ncc(-c4cnn([C@H]5C[C@@H](CNc6ccc7c(c6)C(=O)N(C6CCC(=O)NC6=O)C7=O)C5)c4)nc3c2)CC1 (stereo partly shown)              pIC50          < 6.00
2  O=C1CCC(N2Cc3ccc(CCCCCC(=O)N4CCC(n5cc(-c6cnc7ccccc7n6)cn5)CC4)cc3C2=O)C(=O)N1 (stereo not shown)              pIC50    7.00 to 8.00
3  CN(C)c1ccnc(-c2cn([C@H]3C[C@H](CNc4ccc5c(c4)C(=O)N(C4CCC(=O)NC4=O)C5=O)C3)nc2C2CC2)c1 (stereo partly shown)              pIC50          < 6.00
4  N#Cc1cccc2ncc(-c3cnn([C@H]4C[C@H](CCCNc5ccc6c(c5)C(=O)N(C5CCC(=O)NC5=O)C6=O)C4)c3)nc12 (stereo partly shown)              pIC50    6.00 to 7.00
5  O=C1CCC(N2Cc3cc(CNC(=O)C(F)(F)CCC(=O)N4CCC(n5cc(-c6cnc7ccccc7n6)cn5)CC4)ccc3C2=O)C(=O)N1 (stereo not shown)              pIC50          < 6.00

So what does the record say about pIC50 for O=C(CN1CC(N2CCN(c3ccccn3)CC2)C1)NCc1ccc2c(c1)C(=O)N(C1CCC(=O)NC1=O)C2=O (stereo not shown) ?
< 6.00

So what does the record say about pIC50 for COc1cccc2ncc(-c3cnn(CCCCCCNc4ccc5c(c4)C(=O)N(C4CCC(=O)NC4=O)C5=O)c3)nc12 (stereo not shown) ?
< 6.00
